target: Sodium-dependent dopamine transporter (Rattus norvegicus, UniProt P23977)
Sequence (P23977 whole entry): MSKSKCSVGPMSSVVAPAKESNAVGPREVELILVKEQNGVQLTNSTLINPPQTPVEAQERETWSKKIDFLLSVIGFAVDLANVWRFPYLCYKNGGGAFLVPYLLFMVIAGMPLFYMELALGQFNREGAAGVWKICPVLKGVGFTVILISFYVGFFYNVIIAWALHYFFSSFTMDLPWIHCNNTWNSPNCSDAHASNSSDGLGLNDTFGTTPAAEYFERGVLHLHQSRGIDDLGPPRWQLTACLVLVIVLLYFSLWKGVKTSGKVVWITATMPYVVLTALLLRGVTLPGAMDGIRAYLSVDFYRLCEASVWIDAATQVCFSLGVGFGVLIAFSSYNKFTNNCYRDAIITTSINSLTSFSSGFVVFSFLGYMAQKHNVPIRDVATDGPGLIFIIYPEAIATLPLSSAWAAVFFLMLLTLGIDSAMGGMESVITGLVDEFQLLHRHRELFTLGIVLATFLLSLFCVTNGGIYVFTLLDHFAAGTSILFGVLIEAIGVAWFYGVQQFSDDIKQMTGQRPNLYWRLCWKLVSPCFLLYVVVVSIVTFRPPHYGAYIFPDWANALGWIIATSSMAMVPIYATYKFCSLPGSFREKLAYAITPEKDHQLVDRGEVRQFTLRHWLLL
test-summary: Ability to inhibit [3H]DA uptake through DAT in rat synaptosomes
property-name: Ki (nM)

>>> obs_value("COC(=O)CSC[C@@H]1CN(C)CC[C@H]1c1ccc(Cl)cc1")
2620
>>> obs_value("CC(C)NC(=O)CSC[C@@H]1CN(C)CC[C@H]1c1ccc(Cl)cc1")
663
>>> obs_value("CC(C)NC(=O)CSC[C@H]1CN(C)CC[C@H]1c1ccc(Cl)cc1")
142
>>> obs_value("CN1CC[C@@H](c2ccc(Cl)cc2)[C@@H](CSCC(=O)NCCc2ccccc2)C1")
112
>>> obs_value("CC(C)NC(=O)CSC[C@@H]1CN(C)CC[C@@H]1c1ccc(Cl)cc1")
13
>>> obs_value("CN1CC[C@@H](c2ccc(Cl)cc2)[C@H](CSCC(N)=O)C1")
1100
>>> obs_value("CN1CC[C@@H](c2ccc(Cl)cc2)[C@@H](CSCC(=O)Nc2ccccc2)C1")
80
>>> obs_value("COC(=O)CSC[C@@H]1CN(C)CC[C@@H]1c1ccc(Cl)cc1")
38
>>> obs_value("COC(=O)CSC[C@H]1CN(C)CC[C@H]1c1ccc(Cl)cc1")
598
>>> obs_value("CN1CC[C@@H](c2ccc(Cl)cc2)[C@H](CSCC(=O)NCCc2ccccc2)C1")
23
>>> obs_value("CC(=O)OCCSC[C@H]1CN(C)CC[C@H]1c1ccc(Cl)cc1")
177
>>> obs_value("CNC(=O)CSC[C@@H]1CN(C)CC[C@@H]1c1ccc(Cl)cc1")
311
>>> obs_value("CN1CC[C@H](c2ccc(Cl)cc2)[C@H](CSCC(=O)N(C)C)C1")
17
>>> obs_value("CN1CC[C@@H](c2ccc(Cl)cc2)[C@@H](CSCC(=O)NCc2ccccc2)C1")
302
>>> obs_value("COC(=O)[C@H]1CN(C)CC[C@H]1c1ccc(Cl)cc1")
1560
>>> obs_value("CC(=O)OCCSC[C@@H]1CN(C)CC[C@H]1c1ccc(Cl)cc1")
536
>>> obs_value("CN1CC[C@@H](c2ccc(Cl)cc2)[C@@H](CSCCOC(=O)c2ccccc2)C1")
1470
>>> obs_value("CN1CC[C@@H](c2ccc(Cl)cc2)[C@H](CSCC(=O)NCc2ccccc2)C1")
1570
>>> obs_value("CNC(=O)CSC[C@@H]1CN(C)CC[C@H]1c1ccc(Cl)cc1")
164
>>> obs_value("CN1CC[C@H](c2ccc(Cl)cc2)[C@H](CSCC(=O)NCc2ccccc2)C1")
3.9

====

target: Norepinephrine transporter (Rattus norvegicus)
test-summary: Ability to inhibit [3H]NE uptake through NET in rat synaptosomes
pKi: −log10 of the molar value.
pKi below 7 gives False; pKi at or above it gives True.

>>> class_name("CC(=O)OCCSC[C@@H]1CN(C)CC[C@H]1c1ccc(Cl)cc1")
"True"
>>> class_name("CC(C)NC(=O)CSC[C@@H]1CN(C)CC[C@@H]1c1ccc(Cl)cc1")
"True"
>>> class_name("CN1CC[C@@H](c2ccc(Cl)cc2)[C@@H](CSCC(=O)Nc2ccccc2)C1")
"False"
>>> class_name("CC(=O)OCCSC[C@H]1CN(C)CC[C@H]1c1ccc(Cl)cc1")
"False"
>>> class_name("CN1CC[C@@H](c2ccc(Cl)cc2)[C@@H](CSCC(=O)NCc2ccccc2)C1")
"True"
>>> class_name("CN1CC[C@@H](c2ccc(Cl)cc2)[C@H](CSCCOC(=O)c2ccccc2)C1")
"True"
>>> class_name("COC(=O)CSC[C@@H]1CN(C)CC[C@@H]1c1ccc(Cl)cc1")
"True"
>>> class_name("CN1CC[C@@H](c2ccc(Cl)cc2)[C@H](CSCC(=O)NCCc2ccccc2)C1")
"False"
>>> class_name("CN1CC[C@@H](c2ccc(Cl)cc2)[C@H](CSCC(=O)N(C)C)C1")
"False"
>>> class_name("COC(=O)CSC[C@@H]1CN(C)CC[C@H]1c1ccc(Cl)cc1")
"True"
>>> class_name("COC(=O)[C@H]1CN(C)CC[C@H]1c1ccc(Cl)cc1")
"False"
>>> class_name("CN1CC[C@@H](c2ccc(Cl)cc2)[C@H](CSCC(=O)NCc2ccccc2)C1")
"True"
>>> class_name("CN1CC[C@@H](c2ccc(Cl)cc2)[C@H](CSCC(N)=O)C1")
"True"

====

target: Sodium-dependent dopamine transporter (Rattus norvegicus, UniProt P23977)
test-summary: Ability to inhibit [3H]DA uptake through DAT in rat synaptosomes
pKi: −log10 of the molar value.
Overview of reported pKi across a group of molecules:
property-name: pKi

>>> obs_value("CN1CC[C@@H](c2ccc(Cl)cc2)[C@@H](CSCC(=O)Nc2cccc3ccccc23)C1")
6.99
>>> obs_value("CN1CC[C@@H](c2ccc(Cl)cc2)[C@@H](CSCC(=O)N(C)C)C1")
6.75
>>> obs_value("CN1CC[C@@H](c2ccc(Cl)cc2)[C@H](CSCCO)C1")
6.73
>>> obs_value("CN1CC[C@@H](c2ccc(Cl)cc2)[C@@H](CSCCO)C1")
6.80
>>> obs_value("CN1CC[C@H](c2ccc(Cl)cc2)[C@H](CSCC(=O)N2CCCCC2)C1")
7.47

====

Ratio Ki listing for selected molecules.
target: Monoamine transporters; serotonin & dopamine (Rattus norvegicus) (UniProt P31652+P23977)
Sequence (P31652 whole entry, looked up, one chain of several): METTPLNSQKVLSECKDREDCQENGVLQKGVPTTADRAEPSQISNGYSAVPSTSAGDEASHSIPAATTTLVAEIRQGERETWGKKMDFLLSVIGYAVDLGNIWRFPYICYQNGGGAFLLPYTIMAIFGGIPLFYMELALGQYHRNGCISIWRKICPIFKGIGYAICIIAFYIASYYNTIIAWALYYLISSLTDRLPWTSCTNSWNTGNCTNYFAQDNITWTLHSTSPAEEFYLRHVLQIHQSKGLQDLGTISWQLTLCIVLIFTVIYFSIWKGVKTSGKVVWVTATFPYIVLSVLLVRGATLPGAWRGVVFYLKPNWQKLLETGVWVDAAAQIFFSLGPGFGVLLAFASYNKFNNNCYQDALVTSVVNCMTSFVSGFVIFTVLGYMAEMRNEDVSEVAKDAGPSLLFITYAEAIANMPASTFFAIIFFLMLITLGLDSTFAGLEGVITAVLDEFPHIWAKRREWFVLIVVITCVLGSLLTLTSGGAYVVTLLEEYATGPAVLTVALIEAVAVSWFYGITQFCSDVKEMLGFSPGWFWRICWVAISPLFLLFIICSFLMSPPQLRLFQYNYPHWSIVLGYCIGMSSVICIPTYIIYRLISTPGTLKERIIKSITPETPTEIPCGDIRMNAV
test-summary: Selectivity towards rat SERT over DAT
Type: protein assay
property-name: Ratio Ki

>>> obs_value("CN1CC[C@@H](c2ccc(Cl)cc2)[C@H](CSCCO)C1")
0.69
>>> obs_value("CN1CC[C@@H](c2ccc(Cl)cc2)[C@H](CSCC(=O)NCCc2ccccc2)C1")
2.97
>>> obs_value("CN1CC[C@@H](c2ccc(Cl)cc2)[C@H](CSCC(=O)N(C)C)C1")
"< 0.06"
>>> obs_value("CC(=O)OCCSC[C@@H]1CN(C)CC[C@@H]1c1ccc(Cl)cc1")
10.1
>>> obs_value("CN1CC[C@@H](c2ccc(Cl)cc2)[C@@H](CSCCOC(=O)c2ccccc2)C1")
0.18
>>> obs_value("CN1CC[C@H](c2ccc(Cl)cc2)[C@H](CSCC(=O)NCc2ccccc2)C1")
5.81
>>> obs_value("CN1CC[C@@H](c2ccc(Cl)cc2)[C@@H](CSCC(=O)Nc2ccccc2)C1")
1.13
>>> obs_value("COC(=O)[C@H]1CN(C)CC[C@H]1c1ccc(Cl)cc1")
0.04
>>> obs_value("CN1CC[C@@H](c2ccc(Cl)cc2)[C@H](CSCC(=O)N2CCCCC2)C1")
"< 0.06"
>>> obs_value("CN1CC[C@@H](c2ccc(Cl)cc2)[C@@H](CSCC(=O)N(C)C)C1")
0.98
>>> obs_value("CN1CC[C@@H](c2ccc(Cl)cc2)[C@@H](CSCC(=O)Nc2cccc3ccccc23)C1")
1.06
>>> obs_value("CC(=O)OCCSC[C@H]1CN(C)CC[C@H]1c1ccc(Cl)cc1")
0.71
>>> obs_value("COC(=O)CSC[C@H]1CN(C)CC[C@H]1c1ccc(Cl)cc1")
0.67
>>> obs_value("CN1CC[C@H](c2ccc(Cl)cc2)[C@H](CSCC(=O)N(C)C)C1")
0.53

====

target: Norepinephrine transporter (Rattus norvegicus, UniProt Q9WTR4)
Sequence (Q9WTR4 whole entry): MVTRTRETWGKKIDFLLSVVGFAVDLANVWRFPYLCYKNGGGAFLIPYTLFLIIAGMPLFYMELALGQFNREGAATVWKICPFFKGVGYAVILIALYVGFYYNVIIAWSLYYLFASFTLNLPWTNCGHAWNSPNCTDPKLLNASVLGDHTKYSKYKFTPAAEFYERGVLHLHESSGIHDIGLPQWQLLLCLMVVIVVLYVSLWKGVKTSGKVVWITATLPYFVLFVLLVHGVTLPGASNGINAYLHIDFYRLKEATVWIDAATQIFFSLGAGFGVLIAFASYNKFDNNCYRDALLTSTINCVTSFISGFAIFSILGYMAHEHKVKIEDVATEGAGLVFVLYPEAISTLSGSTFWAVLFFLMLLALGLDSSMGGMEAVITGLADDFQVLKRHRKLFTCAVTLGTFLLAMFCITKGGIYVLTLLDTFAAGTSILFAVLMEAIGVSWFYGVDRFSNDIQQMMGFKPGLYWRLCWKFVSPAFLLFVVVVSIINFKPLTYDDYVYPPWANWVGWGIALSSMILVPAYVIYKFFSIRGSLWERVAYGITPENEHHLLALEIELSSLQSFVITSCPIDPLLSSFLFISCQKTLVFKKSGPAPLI
test-summary: Ability to inhibit [3H]NE uptake through NET in rat synaptosomes
# Ki per record follows
property-name: Ki

>>> obs_value("CC(C)NC(=O)CSC[C@@H]1CN(C)CC[C@H]1c1ccc(Cl)cc1")
"0.067 µM"
>>> obs_value("CN1CC[C@H](c2ccc(Cl)cc2)[C@H](CSCC(=O)N(C)C)C1")
"0.063 µM"
>>> obs_value("CN1CC[C@H](c2ccc(Cl)cc2)[C@H](CSCC(=O)NCc2ccccc2)C1")
"0.085 µM"
>>> obs_value("CN1CC[C@@H](c2ccc(Cl)cc2)[C@@H](CSCC(=O)NCCc2ccccc2)C1")
"0.1 µM"
>>> obs_value("CN1CC[C@H](c2ccc(Cl)cc2)[C@H](CSCC(N)=O)C1")
"0.069 µM"
